- Test system: SR
- ASSAY: NCI tumour cell line growth inhibition, 48 h
Activity calls are given as the source filed them. Rule as the data show it: active = GI50 up to about 1.1 µM and inactive = higher.
The categories you may choose from are active, inactive

INSERT INTO results (molecule, class_label) VALUES
  ('Cc1cc(O)c2cc3c(O)c(O)ccc3cc2c1', 'active');

[in] Which result was noted for this molecule in the test: "O=c1[nH]c2nccn2c2c1SCCN2"
[out] inactive

[in] Next molecule up: "O=C(O)c1nc2ccccc2nc1NCc1ccc(F)cc1"
[out] inactive

[in] How about CC(C)(C)c1cc(O)ccc1O [E319] ?
[out] active

[in] And what about the molecule CC1(C)C=N[N+]2(C)C3C=CC(CC3)C12 (stereo not given) ?
[out] inactive

[in] Similarly, c1ccc(/N=C2\SC(c3ccccc3)CN2C23CC4CC(CC(C4)C2)C3)cc1 (stereo not given) ?
[out] inactive

[in] Also, C[N+](C)(C)CC1Cc2ccccc2C1=O (stereo not given) please.
[out] inactive

[in] Item: "CCN(CC)CCSc1c2ccccc2nc2cc(NCC(=O)Nc3ccccc3-c3ccccc3NC(=O)CNc3ccc4c(SCCN(CC)CC)c5ccccc5nc4c3)ccc12"
[out] inactive

[in] How about this molecule: COc1c(O)cc2c(c1O)C1O[C@H](CO)C(O)[C@H](O)[C@H]1OC2=O (stereo not given in full)
[out] inactive

[in] Now consider OCC(O)COCn1cc(Cn2ncc3c(O)ncnc32)nn1 (stereo not given) .
[out] inactive

[in] Also need "Cc1c(S(=O)(=O)c2ccccc2)c(N)n(Cc2ccccc2)c1C" , thanks.
[out] inactive

[in] For "CC1=CC(=O)/C(=C(/C)NCCN(CCN/C(C)=C2\C(=O)C=C(C)OC2=O)CCN/C(C)=C2\C(=O)C=C(C)OC2=O)C(=O)O1" then?
[out] inactive

[in] Cool, now CCOC(=O)c1[nH]c2cccc3c2c1CC(Br)C3=O (stereo not given)
[out] inactive

[in] Same question for "CC(C)/C(Cl)=N\OC(=O)Nc1ccc(F)cc1F" please.
[out] inactive

[in] For O=C1CC(CC(=O)C2CCCCC2=O)C(=O)N1 (stereo not given) then?
[out] inactive

[in] Same read-out for "O=c1[nH]nc(-c2ccccc2)n1/N=C\c1ccccc1" ?
[out] inactive

[in] CC(C)(C)[Si](C)(C)OCC1OC(n2cnc3c(N)ncnc32)CC1O (stereo not given) ?
[out] inactive

[in] Now the molecule CC1(O)C(=O)OC2CC([C@]3(O)CCC4[C@@H]5C[C@H]6O[C@]67[C@@H](O)C=CC(=O)[C@]7(C)C5CC[C@@]43C)C1(C)C2 (stereo not given in full)
[out] inactive

[in] What do you have for "O=[N+]([O-])/C(C(Cl)=C(Cl)Cl)=C(\N1CCCCC1)n1nnc2ccccc21" ?
[out] inactive

[in] And the next one, "O=C(CCC1CCCCC1)NCc1ccc(C(=O)O)cc1" ?
[out] inactive

###

Reported values of GI50 for individual entries
- Tested on: MDA-N
- ASSAY: NCI tumour cell line growth inhibition, 48 h
Calls of active or inactive are those of the source. No stated cut-off is given here; in the data, active = GI50 up to about 1.1 µM and inactive = higher.

# annotated cases, reported GI50 shown
INSERT INTO results (compound, result) VALUES
  ('C=C1C[C@@H](O)[C@@H](Br)C(C)(C)[C@]12CCC(C)(Cl)C(Br)C2 (stereo partly specified)', '25.5 µM (inactive)'),
  ('CC1=CC(=O)/C(=C(/C)NCCN(CCN/C(C)=C2\C(=O)C=C(C)OC2=O)CCN/C(C)=C2\C(=O)C=C(C)OC2=O)C(=O)O1', '> 100 µM (inactive)'),
  ('CC1(C)CC(O)C(C)(C)[C@@H](O)C1 (stereo partly specified)', '> 100 µM (inactive)'),
  ('C=C(C(=O)OC)[C@@H]1C[C@@H](OC(C)=O)C2=C[C@H](C[C@@]3(C)O[C@@H]3C3=CC(C)=C(O3)[C@H]1OC(C)=O)OC2=O [BIPINNATIN I]', '19.4 µM (inactive)'),
  ('C=CCOC(=O)N1c2ccc(O)cc2[C@@]23O[C@@]24[C@@H]1C#C/C=C\C#C[C@]3(O)C(OC)(OC)C[C@@H]4C', '28.8 µM (inactive)'),
  ('CCCCCCCCCCCCCCCCCC(=O)Nc1ccn(C2OC(CO)C(O)C2O)c(=O)n1 (stereo unspecified)', '> 100 µM (inactive)');

[in] What value of measured GI50 is listed for "COC(=O)c1ccc(CCc2cc(O)c(Br)cc2O)cc1" ?
[out] 15.7 µM (inactive)

[in] Would you mind doing "c1cncc(CNCCN2CCNCC2)c1" as well?
[out] > 100 µM (inactive)

[in] Try this compound too: "CCCC[C@@H](C)/C=C1\CN2CCC[C@H]2[C@@](C)(O)[C@@H]1O"
[out] > 100 µM (inactive)

[in] Next entry: "CNC(=O)CNC(=O)CCC(=O)N(C)C"
[out] > 100 µM (inactive)

[in] "COc1cc2c(cc1OC)CCN=C2" ?
[out] > 100 µM (inactive)

[in] One more compound: "Cc1csc2nc3[nH]ncc3c(=O)n12"
[out] > 100 µM (inactive)

[in] And COc1ccc(/C=C2\CN(C)CC3C2=NN(c2ccccc2)C3c2ccc(OC)cc2)cc1 (stereo unspecified) ?
[out] > 100 µM (inactive)

[in] What do you get for OC1CN2Cc3cc4c(cc3[C@]13C=C[C@@H](O)CC23)OCO4 (stereo partly specified) ?
[out] 17 µM (inactive)

[in] // repeat for "CO/C=C(/C(=O)OC)c1ccccc1[C@H]1C[C@@H]1c1ccccc1" and report
[out] 18.7 µM (inactive)

[in] What would you report for CON(C)C(=O)C(C)NC(=O)OC(C)(C)C (stereo unspecified) ?
[out] > 100 µM (inactive)

###

Below, each entry is listed alongside its reported GI50.
- Tested on: SNB-19
- ASSAY: NCI tumour cell line growth inhibition, 48 h
Active and inactive are the calls of the source. Rule as the data show it: active = GI50 up to about 1.1 µM and inactive = higher.

As a guide, the following entries are already answered.
INSERT INTO results (compound, measurement_kind, result) VALUES
  ('Nc1ncnc2c1ncn2C1C=CC(CP(=O)(O)O)C1 (stereo not drawn)', 'GI50', '> 100 µM (inactive)'),
  ('COc1ccc(C2CC(c3c(O)ccc4ccccc34)=NN2)cc1OC (stereo not drawn)', 'GI50', '2.1 µM (inactive)');

Next item in the queue.
[in] Request the reported GI50 associated with COC1=CC(=O)C(O)=C(CC2(C)C(C)CCC3(C)C2CCCC3(C)C)C1=O (stereo not drawn)
[out] 3.58 µM (inactive)

###

- System: SF-295
- ASSAY: NCI tumour cell line growth inhibition, 48 h
Activity calls are given as the source filed them. Rule as the data show it: active = GI50 up to about 1.1 µM and inactive = higher.
Respond only with the outcome that fits, drawn from active, inactive

Some solved cases for reference:
INSERT INTO assay_data (molecule, class_label) VALUES
  ('C/C(=C\Cc1cc(O)ccc1O)CCc1c(C)cc(O)c(C=O)c1C [PANICEIN B3]', 'inactive'),
  ('CCCCCCCCCOC(=O)c1cnc(Cl)cn1', 'inactive'),
  ('CC12CCC3(C1)[C@H](CC2=O)C[C@@H](OC(=O)c1ccccc1)C1C(C)(CO)CCC[C@@]13C (some centres not stated)', 'active');

[in] Recorded test call requested for "CN(C)C(=S)N1C(=S)N(c2ccccc2)C(=N/c2ccccc2)/C1=N\c1ccccc1"
[out] inactive

[in] What about this molecule? CC1(C)CC(O)C(C)(C)[C@@H](O)C1 (some centres not stated)
[out] inactive

[in] Cool, now "CCOC(=O)C(=O)C(=O)NN(C)C1=NCCN1"
[out] inactive

[in] Try this molecule next: "Cc1nc2ccccc2n1Cc1nnc(-c2ccccc2)o1"
[out] inactive

[in] Next molecule: "Cn1c(=O)cc(NNc2ccccc2)[nH]c1=O"
[out] inactive

[in] Entry to check: COC(=O)C1=CSC2(S1)C(C(=O)OC)=CSc1c2ssc1=O (configuration not stated)
[out] inactive

[in] And then COc1cc2c(cc1OC)CN1CCc3ccccc3CC1C2 (configuration not stated) , what is it?
[out] inactive

[in] Moving on to COC1CCC(O)C(CO)O1 (configuration not stated)
[out] inactive

[in] Another molecule to check: "O=C(c1ccccc1)n1c2ccc(Br)cc2c2nc3ccccc3nc21"
[out] inactive

[in] // next record O=c1[nH]c(=O)n(C2COC(CO)C2O)cc1F (configuration not stated)
[out] inactive

[in] Entry to check: "COc1ccc(NC(=O)CC(=O)n2nc(-c3ccccc3)c(/N=N/c3ccccc3C)c2-c2ccccc2)cc1"
[out] inactive

[in] Likewise for O=C1CCC(c2ccccc2)C(O)(C(=O)O)C1 (configuration not stated) ?
[out] inactive

[in] Try Cc1cccc(C(C)(C)C)c1NC(=O)C(=O)C(C(=O)/C=C\c1ccccc1)C1OC(=O)c2ccccc21 (configuration not stated) next.
[out] inactive

[in] Next record, please: "CCc1cccc(C)c1NC(=O)CC(=O)NNC(N)=S"
[out] inactive

[in] Further, for O=S(=O)(O)C(O)/C=C/c1ccccc1 (configuration not stated) ?
[out] inactive

[in] One more molecule: O=C1C(Cl)=C(Cl)C(Cl)(Cl)C(Cl)C1(Cl)Cl (configuration not stated)
[out] inactive

[in] Consider next the molecule "C=CC[C@H]1[C@H](O[Si](C)(C)C(C)(C)C)C=CC(=O)[C@@H]1CC(=O)OCC" in the same way.
[out] inactive

[in] Next entry: "O=c1c2ccccc2sc2nc(CCl)nn12"
[out] inactive

[in] Next molecule up: COc1cc([C@@H]2c3cc4c(c(O)c3C[C@H]3COC(=O)[C@@H]32)OCO4)cc(OC)c1OC [BETA-PELTATIN A]
[out] active

[in] Would you kindly repeat that for "COc1ccc([Se]c2ccc(OC)cc2)cc1" ?
[out] inactive

[in] Another: "CC(=O)O[C@H]1C(=O)[C@@]2(C)[C@H]([C@H](OC(=O)c3ccccc3)[C@]3(O)C[C@H](OC(=O)[C@H](O)[C@@H](NC(=O)OC(C)(C)C)c4ccco4)C(C)=C1C3(C)C)[C@]1(OC(C)=O)CO[C@@H]1C[C@@H]2O"
[out] active
